biological target: hCA IX (Homo sapiens, UniProt Q16790); experiment: CA CO2 hydrase activity assay, tumor-associated isozyme hCA IX; details: read-out: KI hCA IX; Table 3; catalytic domain of the human, cloned isozyme, CO2 hydrase assay method
pKi: −log10 of the molar value.
Please note: T applies when pKi is 8 or greater, and F applies otherwise.

Here are 8 compounds together with their reported answers.
Q: Tell me whether pKi is at least 8 here: CC(C)c1cc(-c2ccccc2)cc(C(C)C)[n+]1-c1ccc(S(=O)(=O)Nc2nnc(S(N)(=O)=O)s2)cc1
Ans: F

Q: Please do the same for Cc1cc(C)[n+](-c2ccc(S(=O)(=O)Nc3nnc(S(N)(=O)=O)s3)cc2)c(C(C)C)c1 as well.
Ans: T

Q: Please do the same for Cc1cc(-c2ccccc2)cc(-c2ccccc2)[n+]1-c1ccc(S(=O)(=O)Nc2nnc(S(N)(=O)=O)s2)cc1 as well.
Ans: F

Q: Please do the same for CCCCc1cc(-c2ccccc2)cc(CCCC)[n+]1-c1ccc(S(=O)(=O)Nc2nnc(S(N)(=O)=O)s2)cc1 as well.
Ans: F

Q: Please do the same for Cc1cc(C)[n+](-c2ccc(S(=O)(=O)Nc3nnc(S(N)(=O)=O)s3)cc2)c(C)c1 as well.
Ans: T

Q: Please do the same for CC(C)c1cc(-c2ccccc2)cc(-c2ccccc2)[n+]1-c1ccc(S(=O)(=O)Nc2nnc(S(N)(=O)=O)s2)cc1 as well.
Ans: F

Q: Please do the same for CCCc1cc(-c2ccccc2)cc(-c2ccccc2)[n+]1-c1ccc(S(=O)(=O)Nc2nnc(S(N)(=O)=O)s2)cc1 as well.
Ans: F

Q: Please do the same for Cc1cc(C)[n+](-c2ccc(S(=O)(=O)Nc3nnc(S(N)(=O)=O)s3)cc2)c(C)c1C as well.
Ans: T

Please turn your attention to the following entry.
Q: Tell me whether pKi is at least 8 here: Cc1cc(C(C)(C)C)[n+](-c2ccc(S(=O)(=O)Nc3nnc(S(N)(=O)=O)s3)cc2)c(C(C)(C)C)c1
Ans: F

###

molecular target: hCA I (Homo sapiens, UniProt P00915); construct: made in house; host or cells: Escherichia coli BL21 (DE3); experiment: CA esterase activity assay, isozyme hCA I; type: biochemical; conditions: Table 1; human cloned isozymes, esterase assay method; read-out: KI hAC I
Sequence (P00915 whole entry): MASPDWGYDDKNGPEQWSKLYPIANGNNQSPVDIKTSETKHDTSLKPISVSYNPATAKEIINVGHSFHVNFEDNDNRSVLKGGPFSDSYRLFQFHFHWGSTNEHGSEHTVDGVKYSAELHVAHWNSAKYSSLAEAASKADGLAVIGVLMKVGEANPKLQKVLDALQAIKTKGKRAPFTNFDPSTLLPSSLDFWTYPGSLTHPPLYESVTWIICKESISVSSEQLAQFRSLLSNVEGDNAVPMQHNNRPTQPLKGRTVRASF
Answer each item with its documented Ki.
Numbers only, in µM.

Q: So what's the measured Ki for this one? Nc1ccc(S(=O)(=O)Nc2ccccc2S(N)(=O)=O)cc1
Ans: 0.185

Q: Please do the same for NNc1ccc(S(N)(=O)=O)cc1 [Compound 4, 4-hydrazino-benzenesulfonamide] as well.
Ans: 78.5

// switching to the query compound
Q: So what's the measured Ki for this one? Nc1ccc(S(N)(=O)=O)cc1I
Ans: 6

###

target: hCA IX (Homo sapiens); assay: CA CO2 hydrase activity assay, tumor-associated isozyme hCA IX
pKi: −log10 of the molar value.
Answer each item with its documented pKi.

Q: What pKi appears in the records for this compound with hCA IX (Homo sapiens)? CCc1cc(-c2ccccc2)cc(CC)[n+]1CCc1ccc(S(N)(=O)=O)cc1
Ans: > 8.00

Q: Please do the same for Cc1cc(C(C)(C)C)[n+](-c2ccc(S(=O)(=O)Nc3nnc(S(N)(=O)=O)s3)cc2)c(C(C)(C)C)c1 as well.
Ans: 7.46 to 7.92

Q: Please do the same for Cc1cc(C)[n+](-c2ccc(S(=O)(=O)Nc3nnc(S(N)(=O)=O)s3)cc2)c(C)c1 as well.
Ans: 8.05 to 8.52

Q: Please do the same for CCCc1cc(-c2ccccc2)cc(CCC)[n+]1-c1ccc(S(=O)(=O)Nc2nnc(S(N)(=O)=O)s2)cc1 as well.
Ans: 7.46 to 7.92

Q: Please do the same for Cc1cc(-c2ccccc2)[n+](-c2ccc(S(=O)(=O)Nc3nnc(S(N)(=O)=O)s3)cc2)c(-c2ccccc2)c1 as well.
Ans: 7.46 to 7.92

Q: Please do the same for Cc1cc(-c2ccccc2)cc(C)[n+]1-c1ccc(S(N)(=O)=O)cc1 as well.
Ans: 7.27 to 8.22

Parameter requested: pKi. Apply to each item below.
1. CCc1cc(-c2ccccc2)cc(CC)[n+]1-c1ccc(S(=O)(=O)Nc2nnc(S(N)(=O)=O)s2)cc1
2. CC(C)c1cc(-c2ccccc2)cc(C(C)C)[n+]1CCc1ccc(S(N)(=O)=O)cc1
3. NS(=O)(=O)c1ccc(CC[n+]2c(-c3ccccc3)cccc2-c2ccccc2)cc1

Ans:
8.05 to 8.52
6.87 to 7.19
6.87 to 7.19
